Tgt: human IKK-β (Homo sapiens)
Sequence (O14920 1-756): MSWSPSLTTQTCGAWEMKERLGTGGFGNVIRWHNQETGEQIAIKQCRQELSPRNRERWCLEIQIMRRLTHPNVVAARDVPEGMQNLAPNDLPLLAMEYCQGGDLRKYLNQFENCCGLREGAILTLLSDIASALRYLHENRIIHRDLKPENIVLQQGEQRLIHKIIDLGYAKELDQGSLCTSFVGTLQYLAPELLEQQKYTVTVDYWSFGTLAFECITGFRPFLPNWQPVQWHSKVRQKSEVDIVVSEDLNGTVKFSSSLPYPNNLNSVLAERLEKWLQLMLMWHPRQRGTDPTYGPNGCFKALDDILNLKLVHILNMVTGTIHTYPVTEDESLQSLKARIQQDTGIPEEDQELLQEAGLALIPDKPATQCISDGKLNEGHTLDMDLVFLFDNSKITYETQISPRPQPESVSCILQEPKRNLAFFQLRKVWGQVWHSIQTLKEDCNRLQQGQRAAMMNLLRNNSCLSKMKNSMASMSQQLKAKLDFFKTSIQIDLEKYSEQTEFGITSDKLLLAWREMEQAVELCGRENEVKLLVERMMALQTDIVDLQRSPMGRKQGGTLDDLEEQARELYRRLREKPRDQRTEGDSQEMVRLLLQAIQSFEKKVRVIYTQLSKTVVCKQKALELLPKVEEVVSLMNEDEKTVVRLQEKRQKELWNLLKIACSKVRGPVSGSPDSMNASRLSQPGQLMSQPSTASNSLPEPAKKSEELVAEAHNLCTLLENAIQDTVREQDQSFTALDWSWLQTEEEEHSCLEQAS
pIC50: −log10 of the molar value. Counter-ions that a name gives are not always drawn.
Items are presented alongside their recorded pIC50.

Illustrative cases are given below, each with its answer.
- CCCOc1cccc(O)c1-c1cc(C2CCCNC2)c2c(n1)NC(=O)C(C(=O)OCC)C2 (centres unmarked): > 6.30
- N#Cc1c(C2CCCNC2)cc(-c2c(O)cccc2OCc2ccccc2)nc1N (centres unmarked) [Example 2-2, hydrochloride]: > 6.30

Recorded pIC50 (compound N#Cc1c(C2CCCNC2)cc(-c2c(O)cccc2OCCN2CCCCC2)nc1N (centres unmarked) ): 5.70 to 6.30

Recorded pIC50 (compound Cc1c(C2CCCNC2)cc(-c2ccccc2O)nc1N (centres unmarked) [Example 14-1, hydrochloride] ): > 6.30

Recorded pIC50 (compound CC(C)COc1cccc(O)c1-c1cc(C2CCCNC2)c(C#N)c(N)n1 (centres unmarked) ): > 6.30

Recorded pIC50 (compound O=C(c1cc2c(C3CCCNC3)cc(-c3c(O)cccc3OCC3CC3)nc2[nH]c1=O)N1CCNCC1 (centres unmarked) ): > 6.30

Recorded pIC50 (compound CC(C)OC(=O)N1Cc2c(C3CCCNC3)cc(-c3c(O)cccc3OCC3CC3)nc2NC1=O (centres unmarked) ): > 6.30

Recorded pIC50 (compound N#Cc1c(C2CCCNC2)cc(-c2c(O)cccc2OCC2CCC2)nc1N (centres unmarked) ): > 6.30

###

pIC50: −log10 of the molar value. Where a name gives a salt, the structure may show the parent alone.
Let's go through some recorded pIC50 values for human IKK-β (Homo sapiens) together.

Illustrative cases are given below, each with its answer.
- O=C1NCc2c(C3CCCNC3)cc(-c3c(O)cccc3OCC3CC3)nc2N1 (stereo not drawn) [Example 22-2, hydrochloride]: > 6.30
- Cc1cccc(O)c1-c1cc(C2CCCNC2)c(C#N)c(N)n1 (stereo not drawn): 5.00 to 5.70
- N#Cc1c(NCCNCc2ccccc2)cc(-c2ccccc2O)nc1N: > 6.30
- N#Cc1c(C2CCCNC2)cc(-c2c(O)cccc2OCc2cccc([N+](=O)[O-])c2)nc1N (stereo not drawn): > 6.30
- CC(C)CCCOc1cccc(O)c1-c1cc(C2CCNCC2)c2c(n1)NC(=O)OC2: > 6.30

Next compound, pIC50 to be filled in.
# lookup: CCCOc1cccc(O)c1-c1cc(C2CCCNC2)c2c(n1)NC(=O)OC2 (stereo not drawn) on human IKK-β (Homo sapiens), pIC50 = > 6.30
